Let's look at some compounds and their measured TNF-α pg/mL (± SEM) HCT116.
- System: TNF-α
- assay_explanation: TNF-α inhibitory properties (ELISA), HCT116 cell lysate
- Type: cell-based, human
- experimental_parameters: at 10 μM, control 95.74 ± 0.5
The figure you give is taken to be in pg/mL; do not add the unit.

COc1ccc2c(c1)c(CC(=O)O)c(C)n2C(=O)c1ccc(Cl)cc1 [Indomethacin, reference compound]
54.8
CCOP(=O)(OCC)N1C/C(=C\c2ccc(C)cc2)C(=O)C2(C1)C(c1ccc(C)cc1)CN(C)C21C(=O)Nc2ccc(F)cc21 (stereo not drawn) [Compound 17n]
86.47
CCOP(=O)(OCC)N1C/C(=C\c2ccc(F)cc2)C(=O)C2(C1)C(c1ccc(F)cc1)CN(C)C21C(=O)Nc2ccc(C)cc21 (stereo not drawn) [Compound 17g]
81.75
CCOP(=O)(OCC)N1C/C(=C\c2ccc(Br)cc2)C(=O)C2(C1)C(c1ccc(Br)cc1)CN(C)C21C(=O)Nc2ccccc21 (stereo not drawn) [Compound 17l]
27.34
CCOP(=O)(OCC)N1C/C(=C\c2ccc(F)cc2)C(=O)C2(C1)C(c1ccc(F)cc1)CN(C)C21C(=O)Nc2ccccc21 (stereo not drawn) [Compound 17e]
94.27

// CCOP(=O)(OCC)N1C/C(=C\c2cccs2)C(=O)C2(C1)C(c1cccs1)CN(C)C21C(=O)Nc2ccccc21 (stereo not drawn) [Compound 17q] : TNF-α pg/mL (± SEM) HCT116 value = 84.26

---

- System: TNF-α
- assay_explanation: TNF-α inhibitory properties (ELISA), HCT116 cell lysate
- Type: cell-based, human
- experimental_parameters: at 10 μM
metric: TNF-α % inhibition HCT116 (%)
Give your result in % as a bare value.

CCOP(=O)(OCC)N1C/C(=C\c2ccc(C)cc2)C(=O)C2(C1)C(c1ccc(C)cc1)CN(C)C21C(=O)Nc2ccc(Cl)cc21 (centres unmarked) [Compound 17o]
9.8
CCOP(=O)(OCC)N1C/C(=C\c2ccc(F)cc2)C(=O)C2(C1)C(c1ccc(F)cc1)CN(C)C21C(=O)Nc2ccccc21 (centres unmarked) [Compound 17e]
1.5
CCOP(=O)(OCC)N1C/C(=C\c2cccs2)C(=O)C2(C1)C(c1cccs1)CN(C)C21C(=O)Nc2ccc(Cl)cc21 (centres unmarked) [Compound 17s]
9.6
CC(C)Cc1ccc(C(C)C(=O)O)cc1 (centres unmarked) [Ibuprofen, reference compound]
22.2
CCOP(=O)(OCC)N1C/C(=C\c2ccccc2)C(=O)C2(C1)C(c1ccccc1)CN(C)C21C(=O)Nc2ccc(F)cc21 (centres unmarked) [Compound 17b]
1.1
CCOP(=O)(OCC)N1C/C(=C\c2ccccc2)C(=O)C2(C1)C(c1ccccc1)CN(C)C21C(=O)Nc2ccccc21 (centres unmarked) [Compound 17a]
74.0
CCOP(=O)(OCC)N1C/C(=C\c2ccc(C)cc2)C(=O)C2(C1)C(c1ccc(C)cc1)CN(C)C21C(=O)Nc2ccccc21 (centres unmarked) [Compound 17m]
77.4
CCOP(=O)(OCC)N1C/C(=C\c2ccccc2)C(=O)C2(C1)C(c1ccccc1)CN(C)C21C(=O)Nc2ccc(Cl)cc21 (centres unmarked) [Compound 17c]
66.9

In the following, a different compound is considered.
Entry CCOP(=O)(OCC)N1C/C(=C\c2cccs2)C(=O)C2(C1)C(c1cccs1)CN(C)C21C(=O)Nc2ccc(C)cc21 (centres unmarked) [Compound 17t] ; TNF-α % inhibition HCT116 = 14.7

---

In this section, each of the molecules is paired with its reported TNF-α pg/mL (± SEM) PaCa2.
- Tested on: TNF-α
- assay_explanation: TNF-α inhibitory properties (ELISA), PaCa2 cell lysate
- Format: cell-based, human
- experimental_parameters: at 10 μM, control 111.8 ± 2.0
Quick reminder: number only, in pg/mL, skip the unit.

Before answering, review these 6 worked examples.
CCOP(=O)(OCC)N1C/C(=C\c2ccc(C)cc2)C(=O)C2(C1)C(c1ccc(C)cc1)CN(C)C21C(=O)Nc2ccc(Cl)cc21 (stereo not shown) [Compound 17o]
95.6
CCOP(=O)(OCC)N1C/C(=C\c2ccc(Cl)cc2)C(=O)C2(C1)C(c1ccc(Cl)cc1)CN(C)C21C(=O)Nc2ccccc21 (stereo not shown) [Compound 17h]
26.5
CC(C)Cc1ccc(C(C)C(=O)O)cc1 (stereo not shown) [Ibuprofen, reference compound]
64.8
CCOP(=O)(OCC)N1C/C(=C\c2ccc(F)cc2)C(=O)C2(C1)C(c1ccc(F)cc1)CN(C)C21C(=O)Nc2ccc(C)cc21 (stereo not shown) [Compound 17g]
97.4
CCOP(=O)(OCC)N1C/C(=C\c2cccs2)C(=O)C2(C1)C(c1cccs1)CN(C)C21C(=O)Nc2ccccc21 (stereo not shown) [Compound 17q]
91.8
CCOP(=O)(OCC)N1C/C(=C\c2ccccc2)C(=O)C2(C1)C(c1ccccc1)CN(C)C21C(=O)Nc2ccccc21 (stereo not shown) [Compound 17a]
24.8

From here, focus on the item given below.
Summary line: CCOP(=O)(OCC)N1C/C(=C\c2ccc(C)cc2)C(=O)C2(C1)C(c1ccc(C)cc1)CN(C)C21C(=O)Nc2ccccc21 (stereo not shown) [Compound 17m] , TNF-α, reported TNF-α pg/mL (± SEM) PaCa2 = 32.83

---

- target: VEGFR-2 (Homo sapiens, UniProt P35968)
- Construct: endogenous in cells; host or cells: HCT116, PaCa2, MCF7 (human cancer cell lines, ATCC origin)
- Sequence (P35968 20-1356): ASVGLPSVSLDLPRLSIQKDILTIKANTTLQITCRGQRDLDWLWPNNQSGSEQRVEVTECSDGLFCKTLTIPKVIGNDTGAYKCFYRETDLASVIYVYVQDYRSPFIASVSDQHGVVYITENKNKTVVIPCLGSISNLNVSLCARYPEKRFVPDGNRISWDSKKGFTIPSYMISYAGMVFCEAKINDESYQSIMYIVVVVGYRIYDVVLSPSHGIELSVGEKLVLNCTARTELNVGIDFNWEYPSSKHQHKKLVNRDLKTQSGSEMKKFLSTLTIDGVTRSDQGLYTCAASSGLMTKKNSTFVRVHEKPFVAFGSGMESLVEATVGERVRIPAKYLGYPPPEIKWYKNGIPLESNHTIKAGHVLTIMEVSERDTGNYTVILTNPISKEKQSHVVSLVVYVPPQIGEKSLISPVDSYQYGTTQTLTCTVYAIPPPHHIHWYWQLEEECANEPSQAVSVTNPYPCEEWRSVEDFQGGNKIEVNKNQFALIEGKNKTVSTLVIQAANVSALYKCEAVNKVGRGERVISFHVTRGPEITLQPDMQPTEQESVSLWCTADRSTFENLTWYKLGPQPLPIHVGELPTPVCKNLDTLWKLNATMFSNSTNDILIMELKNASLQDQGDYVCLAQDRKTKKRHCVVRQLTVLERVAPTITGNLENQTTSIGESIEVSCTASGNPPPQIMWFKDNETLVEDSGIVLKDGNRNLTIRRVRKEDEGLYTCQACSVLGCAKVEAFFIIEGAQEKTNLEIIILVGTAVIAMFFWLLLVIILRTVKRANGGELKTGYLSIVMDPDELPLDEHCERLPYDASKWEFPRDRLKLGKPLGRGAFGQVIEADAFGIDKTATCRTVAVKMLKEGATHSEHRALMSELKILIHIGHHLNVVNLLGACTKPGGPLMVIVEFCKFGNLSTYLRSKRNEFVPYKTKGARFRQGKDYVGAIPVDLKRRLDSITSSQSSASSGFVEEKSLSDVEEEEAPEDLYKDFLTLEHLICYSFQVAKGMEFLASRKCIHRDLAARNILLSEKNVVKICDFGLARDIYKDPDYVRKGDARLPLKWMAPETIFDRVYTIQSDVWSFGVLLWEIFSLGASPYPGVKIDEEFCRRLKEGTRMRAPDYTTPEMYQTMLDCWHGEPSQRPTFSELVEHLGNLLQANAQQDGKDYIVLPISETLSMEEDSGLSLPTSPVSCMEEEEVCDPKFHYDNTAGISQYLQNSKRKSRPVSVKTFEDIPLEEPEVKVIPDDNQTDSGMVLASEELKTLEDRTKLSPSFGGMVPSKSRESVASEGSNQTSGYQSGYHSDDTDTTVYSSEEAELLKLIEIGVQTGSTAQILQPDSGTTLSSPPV
- assay_explanation: cell-based
- Format: cell-based
- experimental_parameters: at 10 μM, control 317.80 ± 3.5
Measured VEGFR-2 pg/mL ± SEM HCT116, listed per entry for reference.
Just the number please, in pg/mL, no unit attached.

CCOP(=O)(OCC)N1C/C(=C\c2ccccc2)C(=O)C2(C1)C(c1ccccc1)CN(C)C21C(=O)Nc2ccc(F)cc21 (stereo not drawn) [Compound 17b]
73.25

Lab entry: VEGFR-2 (Homo sapiens, UniProt P35968) assay, molecule CCOP(=O)(OCC)N1C/C(=C\c2ccc(F)cc2)C(=O)C2(C1)C(c1ccc(F)cc1)CN(C)C21C(=O)Nc2ccc(Cl)cc21 (stereo not drawn) [Compound 17f] , VEGFR-2 pg/mL ± SEM HCT116 = 43.70

Result for CCOP(=O)(OCC)N1C/C(=C\c2ccc(Cl)cc2)C(=O)C2(C1)C(c1ccc(Cl)cc1)CN(C)C21C(=O)Nc2ccc(Cl)cc21 (stereo not drawn) [Compound 17j] , tested on VEGFR-2 (Homo sapiens, UniProt P35968), VEGFR-2 pg/mL ± SEM HCT116: 62.50

---

- target: VEGFR-2 (Homo sapiens)
- Construct: endogenous in cells; host or cells: HCT116, PaCa2, MCF7 (human cancer cell lines, ATCC origin)
- assay_explanation: cell-based
- Assay type: cell-based
- experimental_parameters: HCT-116, HCT116
metric: inhibition at 10 µM
Your reply should be a number followed by the unit it is expressed in.

CCOP(=O)(OCC)N1C/C(=C\c2cccs2)C(=O)C2(C1)C(c1cccs1)CN(C)C21C(=O)Nc2ccc(C)cc21 (stereo not shown) [Compound 17t]
60.8%
CCOP(=O)(OCC)N1C/C(=C\c2ccc(Cl)cc2)C(=O)C2(C1)C(c1ccc(Cl)cc1)CN(C)C21C(=O)Nc2ccccc21 (stereo not shown) [Compound 17h]
83.7%
CCOP(=O)(OCC)N1C/C(=C\c2ccc(Cl)cc2)C(=O)C2(C1)C(c1ccc(Cl)cc1)CN(C)C21C(=O)Nc2ccc(F)cc21 (stereo not shown) [Compound 17i]
74.4%
CCOP(=O)(OCC)N1C/C(=C\c2cccs2)C(=O)C2(C1)C(c1cccs1)CN(C)C21C(=O)Nc2ccccc21 (stereo not shown) [Compound 17q]
58.4%
CCOP(=O)(OCC)N1C/C(=C\c2ccccc2)C(=O)C2(C1)C(c1ccccc1)CN(C)C21C(=O)Nc2ccc(Cl)cc21 (stereo not shown) [Compound 17c]
86%
CCOP(=O)(OCC)N1C/C(=C\c2ccccc2)C(=O)C2(C1)C(c1ccccc1)CN(C)C21C(=O)Nc2ccccc21 (stereo not shown) [Compound 17a]
88%

Param item: CCOP(=O)(OCC)N1C/C(=C\c2ccc(C)cc2)C(=O)C2(C1)C(c1ccc(C)cc1)CN(C)C21C(=O)Nc2ccc(F)cc21 (stereo not shown) [Compound 17n] ; param system: VEGFR-2 (Homo sapiens); output inhibition at 10 µM: 63.7%

The compound CCOP(=O)(OCC)N1C/C(=C\c2cccs2)C(=O)C2(C1)C(c1cccs1)CN(C)C21C(=O)Nc2ccc(F)cc21 (stereo not shown) [Compound 17r] , tested on VEGFR-2 (Homo sapiens), showed inhibition at 10 µM of 78.8%

The observed inhibition at 10 µM for CCOP(=O)(OCC)N1C/C(=C\c2ccc(Br)cc2)C(=O)C2(C1)C(c1ccc(Br)cc1)CN(C)C21C(=O)Nc2ccccc21 (stereo not shown) [Compound 17l] when tested with VEGFR-2 (Homo sapiens) stands at 73.5%

inhibition at 10 µM of CCOP(=O)(OCC)N1C/C(=C\c2ccc(F)cc2)C(=O)C2(C1)C(c1ccc(F)cc1)CN(C)C21C(=O)Nc2ccc(Cl)cc21 (stereo not shown) [Compound 17f] , assay on VEGFR-2 (Homo sapiens), is 86.2%

Known value: VEGFR-2 (Homo sapiens) inhibition at 10 µM of the compound CCOP(=O)(OCC)N1C/C(=C\c2ccc(F)cc2)C(=O)C2(C1)C(c1ccc(F)cc1)CN(C)C21C(=O)Nc2ccccc21 (stereo not shown) [Compound 17e] equals 66.2%

Query CCOP(=O)(OCC)N1C/C(=C\c2ccc(Cl)cc2)C(=O)C2(C1)C(c1ccc(Cl)cc1)CN(C)C21C(=O)Nc2ccc(Cl)cc21 (stereo not shown) [Compound 17j] on VEGFR-2 (Homo sapiens); inhibition at 10 µM returned: 80.3%

Here CCOP(=O)(OCC)N1C/C(=C\c2cccs2)C(=O)C2(C1)C(c1cccs1)CN(C)C21C(=O)Nc2ccc(Cl)cc21 (stereo not shown) [Compound 17s] was tested on VEGFR-2 (Homo sapiens), and its inhibition at 10 µM came to 83.1%
